Field: IC50. Provide a value for each of the compounds that follow.
Target: human recombinant PARG (Homo sapiens (Human))
Sequence (Q86W56 whole entry): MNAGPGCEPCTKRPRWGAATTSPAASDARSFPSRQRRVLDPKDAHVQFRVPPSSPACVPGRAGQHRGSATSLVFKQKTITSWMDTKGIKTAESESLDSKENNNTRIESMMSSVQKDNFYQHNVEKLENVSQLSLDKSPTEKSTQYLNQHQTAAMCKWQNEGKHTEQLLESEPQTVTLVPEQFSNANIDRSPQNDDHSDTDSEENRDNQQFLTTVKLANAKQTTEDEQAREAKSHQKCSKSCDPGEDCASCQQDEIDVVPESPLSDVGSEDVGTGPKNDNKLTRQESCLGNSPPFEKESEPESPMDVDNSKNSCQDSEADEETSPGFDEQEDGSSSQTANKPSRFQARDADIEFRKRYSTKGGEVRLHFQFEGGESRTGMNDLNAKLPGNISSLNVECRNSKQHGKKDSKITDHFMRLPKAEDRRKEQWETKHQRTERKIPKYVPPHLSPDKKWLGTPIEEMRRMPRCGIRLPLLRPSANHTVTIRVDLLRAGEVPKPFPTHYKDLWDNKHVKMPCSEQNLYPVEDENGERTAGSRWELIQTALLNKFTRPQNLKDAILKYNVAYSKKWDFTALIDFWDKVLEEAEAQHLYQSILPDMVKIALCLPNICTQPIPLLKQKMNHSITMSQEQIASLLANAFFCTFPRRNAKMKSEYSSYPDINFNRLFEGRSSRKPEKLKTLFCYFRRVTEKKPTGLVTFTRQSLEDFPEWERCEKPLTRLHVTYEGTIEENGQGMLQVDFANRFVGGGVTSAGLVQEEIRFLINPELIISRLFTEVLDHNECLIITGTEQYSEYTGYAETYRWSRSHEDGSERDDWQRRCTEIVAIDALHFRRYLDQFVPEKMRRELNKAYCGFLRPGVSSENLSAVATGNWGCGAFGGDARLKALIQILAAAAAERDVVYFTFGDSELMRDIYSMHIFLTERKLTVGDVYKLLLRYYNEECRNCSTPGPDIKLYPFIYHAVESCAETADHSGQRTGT
Test: PARG Activity Assay
Conditions: recombinant human PARG 0.0185 nM, 1 hour pre-incubation, poly (ADP-ribose) substrate-coated plate, Abs 450
Answers are plain numbers, in µM.

INSERT INTO measurements (compound, measure_name, experimental_value) VALUES
  ('Cn1cc(Cn2c(=O)c3cc(S(=O)(=O)NC4(C)CC4)sc3n(Cc3cnc(C#N)s3)c2=O)cn1 [Ex 35]', 'IC50', 0.035),
  ('COC(=O)c1cc(Cn2c(=O)n(Cc3cnn(C)c3)c(=O)c3cc(S(=O)(=O)NC4(C)CC4)sc32)ccc1F [Ex 126]', 'IC50', 0.045),
  ('Cc1ncc(Cn2c(=O)c3cc(S(=O)(=O)NC4(C)CC4)sc3n(Cc3ccc4cn[nH]c4c3)c2=O)s1 [Ex 5]', 'IC50', 0.012);

Kindly consider the entry below.
Exam item: Field request: IC50 | item: Cn1cc(Cn2c(=O)c3cc(S(=O)(=O)NC4(C)CC4)sc3n(Cc3ccc4[nH]c(CO)cc4c3)c2=O)cn1 [Ex 116]
Marked response: 0.015
